Hello, the source for this data is patent US20220073643A1, in case you need it.

STUDY TARGET: human Claudin18.2 (human)
ASSAY INFO: cell-based or functional assay
READOUT NAME: CDC EC50 (µg/mL)
Please respond with the number in µg/mL and leave the unit unwritten.

Some binders with recorded CDC EC50:
| BINDER | CDC EC50 / µg/mL |
| --- | --- |
| 416F12F3 (antibody, V domains shown) VH: DVQLVESGGGLVQPGGSRKLSCAASGFTFSSFGMHWVRQAPEKGLEWVAYISSGSSTIYYAHSVKGRFTISRDNPKNTLFLQMTSLGSEDTAMYYCARFYYGNSFAYWGQGTLVTVSA VL: DIVMTQSPSSLTVTAGEKVTLSCKSSQSLLNSGNQKNYLTWYQQKPGQPPKMLIYWASTRESGVPDRFTGSGSGTDFTLTISSVQAEDLAVYYCQNAYTYPLTFGAGTRLELK | 0.784 |
| 410H6H3 (antibody, V domains shown) VH: DVLLVESGGGLVQPGGSRKLSCAASGFTFSSSGMHWVRQAPEKGLEWVAYISSGSNTIYYADTLKGRFTISRDNPKNTLFLQMTSLRSEDTAMYYCARIYYGNSFVYWGQGTLVTVSA VL: DIVMTQSPSSLTVTAGEKVIMSCKSSQSLLNSGNQKNYLTWYQQKPGQPPKMLIYWASTRESGVPDRFRGSGSGTDFTLTISSVQAEDLAVYYCQNNYYYPLTFGTGTKLALK | 0.346 |
| 429G4E9 (antibody, V domains shown) VH: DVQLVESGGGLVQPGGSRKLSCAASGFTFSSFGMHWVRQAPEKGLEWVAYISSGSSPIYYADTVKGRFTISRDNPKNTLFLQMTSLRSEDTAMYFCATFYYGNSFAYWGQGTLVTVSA VL: DIVMTQSPSSLTVTAGEKVTMSCKSSQTLLNSGNQKNYLTWYQQKSGQPPKLLIYWASTRESGVPDRFTGSGSGTDFTLTISSVQAEDLAVYYCQNAYSYPVTFGSGTKVELK | 1.23 |
| 231H4G11 (antibody, V domains shown) VH: QAYLQQSGAELVRSGASVKMSCKASGYTFTSHNIHWVKQTPGQGLEWIGYISPGNGYTNYNQKFRGKATLTADTSSSTAYMQISSLTSEDSAVYFCTRDYYGNSFAYWGQGTLVTVSA VL: DIVMTQSPSSLTEKAGERVSMSCKSSQSLFNSGSQKNYLTWYQQKPGQPPKLLIYWASTRESGVPDRFSGSGSGTDFTLTISSVQAEDLAVYYCQNNYWFPFTFGAGTKLELK | 1.48 |

Shift focus to the following entry.
Form field: reported CDC EC50 of 262H9H6 (antibody, V domains shown) VH: QAYLQQSGAELVRSGASVKMSCKASGYTFTSHNMHWVKQTPGQGLEWIGYISPGNGYTNYNQKFRGKATLTADTSSSTAYMQISSLTSEDSAVYFCTRDYYGNSFTYWGQGTLVTVSA VL: DIVMTQSPSSLTEKAGERVSMSCKSSQSLFNSGNQKNYLTWYQQKPGQPPKLLIYWASTRESGVPDRFTGSGSGTEFTLTISSVQAEDLAVYYCQNNYWFPFTFGAGTKLELK
0.941
